Taken from PubChem BioAssay (NCI).

ASSAY_NOTES: NCI Yeast Anticancer Drug Screen. Data for the rad52 strain (AID 147);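 note: 0% = growth of vehicle-treated control cultures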
CONDITION_CONTEXT: S. cerevisiae rad52 mutant growth inhibition; at 3.7 µM; stronger effect = higher value
Procedure: Growth inhibition of yeast strains with defined genetic alterations is measured as a screen for potential anti-cancer activity. Selected strains with alterations in DNA damage repair or cell cycle control were exposed to compounds and growth inhibition was measured relative to vehicle treated controls. The strain used in this assay is rad52
About 79,000 compounds went through this panel and 15% of them were active in at least one assay; those are over-represented in the sample as a whole.
growth inhibition listing for selected compounds.

RECORD_SMILES	growth inhibition [%]
CCOc1ccc2c(c1)c(CC(=O)O)cn2C	7
COCCOC(=O)CCn1cc(F)c(=O)[nH]c1=O	-1
O=C(CCCN1CCC2(CC1)CC(=O)N(N1CCCCCC1)C2=O)c1ccc(F)cc1	34
O=C(OCC=C1CCCC1)c1cc([N+](=O)[O-])cc([N+](=O)[O-])c1	2
C[C@H](CCC(=O)NN)[C@H]1CC[C@H]2[C@@H]3CC[C@@H]4C[C@H](O)CC[C@]4(C)[C@H]3CC[C@]12C	0
